# STUDY_SYSTEM: T1, human transferrin receptor (recombinant, for surface plasmon resonance) (human, UniProt P02786 89-760)
# T1 construct: also called huTfR; human transferrin receptor-biotinylated
# T1 sequence (P02786 89-760 limits assumed): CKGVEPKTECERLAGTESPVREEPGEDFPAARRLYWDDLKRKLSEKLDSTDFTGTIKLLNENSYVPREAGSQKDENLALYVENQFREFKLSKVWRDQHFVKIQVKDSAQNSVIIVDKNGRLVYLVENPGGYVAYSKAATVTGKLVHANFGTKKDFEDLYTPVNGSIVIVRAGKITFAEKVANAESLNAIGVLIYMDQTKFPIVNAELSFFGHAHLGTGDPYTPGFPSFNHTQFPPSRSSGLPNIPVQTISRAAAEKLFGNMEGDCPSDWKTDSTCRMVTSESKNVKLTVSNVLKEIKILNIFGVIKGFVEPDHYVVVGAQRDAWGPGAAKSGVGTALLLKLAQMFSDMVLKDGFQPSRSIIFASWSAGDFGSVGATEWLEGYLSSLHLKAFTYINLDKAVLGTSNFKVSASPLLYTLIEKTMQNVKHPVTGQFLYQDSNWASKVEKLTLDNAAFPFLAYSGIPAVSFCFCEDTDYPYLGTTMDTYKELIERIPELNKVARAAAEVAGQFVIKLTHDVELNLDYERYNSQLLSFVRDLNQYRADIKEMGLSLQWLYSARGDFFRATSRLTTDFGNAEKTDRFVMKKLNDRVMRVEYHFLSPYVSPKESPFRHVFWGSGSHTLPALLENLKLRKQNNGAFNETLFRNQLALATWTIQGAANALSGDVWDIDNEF
# MEASUREMENT_NOTES: SPR 25C
METRIC_NAME: koff
In your response, put the unit directly after the numeric value.

Recorded results for 2 binders are shown here.
{"BINDER": "2/99 VH13/VL1 (antibody, V domains shown) VH: QVQLQESGPGLVKPSETLSLTCTVSGFSLSSYAMSWIRQPPGKGLEWIGYIWSGGSTDYNPSLKSRVTISVDTSKNQVSLKLSSVTAADTAVYYCARRYGTSYPDYGDANGFDPWGQGTLVTVSS VL: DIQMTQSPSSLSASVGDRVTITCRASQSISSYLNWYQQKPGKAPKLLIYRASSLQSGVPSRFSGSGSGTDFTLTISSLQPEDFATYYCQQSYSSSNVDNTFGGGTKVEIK", "koff": "0.001 s⁻¹"}
{"BINDER": "2/99 VH13/VL17 (antibody, V domains shown) VH: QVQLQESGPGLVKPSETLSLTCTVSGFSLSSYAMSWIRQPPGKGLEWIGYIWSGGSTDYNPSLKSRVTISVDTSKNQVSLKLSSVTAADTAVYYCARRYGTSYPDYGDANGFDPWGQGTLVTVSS VL: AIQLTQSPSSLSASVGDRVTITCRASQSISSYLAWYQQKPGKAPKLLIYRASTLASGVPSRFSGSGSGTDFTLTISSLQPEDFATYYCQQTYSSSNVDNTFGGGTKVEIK", "koff": "0.00339 s⁻¹"}

Task: Return reported koff. Input binder: 2/99 VH22/VL7 (antibody, V domains shown) VH: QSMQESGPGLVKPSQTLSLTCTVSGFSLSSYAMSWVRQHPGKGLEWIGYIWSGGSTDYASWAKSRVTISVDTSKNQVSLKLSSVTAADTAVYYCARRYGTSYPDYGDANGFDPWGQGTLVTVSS VL: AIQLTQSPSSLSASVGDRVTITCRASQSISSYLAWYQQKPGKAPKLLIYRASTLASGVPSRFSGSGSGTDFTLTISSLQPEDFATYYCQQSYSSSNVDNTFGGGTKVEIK
Result: 0.00337 s⁻¹
